Where these numbers come from: ChEMBL document CHEMBL1134017

- TEST_SYSTEM: Neutrophil collagenase (Homo sapiens, UniProt P22894)
- Sequence (P22894 whole entry): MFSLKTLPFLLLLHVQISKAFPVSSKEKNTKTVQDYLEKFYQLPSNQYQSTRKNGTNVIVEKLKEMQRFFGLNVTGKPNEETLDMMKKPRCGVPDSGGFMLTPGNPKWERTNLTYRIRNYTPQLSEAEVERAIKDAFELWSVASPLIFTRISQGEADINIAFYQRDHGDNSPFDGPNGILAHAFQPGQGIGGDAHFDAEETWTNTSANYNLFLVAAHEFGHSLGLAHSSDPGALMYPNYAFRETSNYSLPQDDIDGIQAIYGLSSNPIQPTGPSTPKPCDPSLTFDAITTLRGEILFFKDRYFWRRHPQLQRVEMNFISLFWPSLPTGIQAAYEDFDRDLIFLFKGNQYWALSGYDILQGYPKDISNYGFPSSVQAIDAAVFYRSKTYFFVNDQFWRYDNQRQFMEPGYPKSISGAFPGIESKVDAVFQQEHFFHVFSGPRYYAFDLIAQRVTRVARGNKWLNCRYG
MEASUREMENT_KIND: pIC50
Notebook: values listed as pIC50 are -log10 of the concentration (mol/L).

In the examples that follow, each entry is paired with its recorded pIC50.
structure=COc1ccc(S(=O)(=O)N2CN(C(C)(C)C)C(=O)C[C@@H]2C(=O)NO)cc1 reported_value=8.82
structure=COc1ccc(S(=O)(=O)N2CN(C)C(=O)C[C@@H]2C(=O)NO)cc1 reported_value=7.33
structure=COc1ccc(S(=O)(=O)N2CCN(Cc3ccccc3)C(=O)C[C@@H]2C(=O)NO)cc1 reported_value=8.82

Could you share what pIC50 was measured for `COc1ccc(S(=O)(=O)N2CC[C@H](C(=O)NO)N(S(=O)(=O)c3ccc(OC)cc3)CC2)cc1` , tested on Neutrophil collagenase (Homo sapiens, UniProt P22894)?
8.74

Could you share what pIC50 was measured for `COc1ccc(S(=O)(=O)N2CCN(C(=O)OCc3ccccc3)CC[C@@H]2C(=O)NO)cc1` , tested on Neutrophil collagenase (Homo sapiens, UniProt P22894)?
8.48

---

# IC50 per entry for Stromelysin-1 (Homo sapiens, UniProt P08254)
Express your answer in nM, writing the number without its unit.

In the examples that follow, each entry is paired with its recorded IC50.
structure=COc1ccc(S(=O)(=O)N2C[C@@H]3CCCN3C(=O)C[C@@H]2C(=O)NO)cc1 endpoint_unit=nM reported_value=3.4
structure=COCCN1CN(S(=O)(=O)c2ccc(OC)cc2)[C@@H](C(=O)NO)CC1=O endpoint_unit=nM reported_value=180
structure=COc1ccc(S(=O)(=O)N2CCN(S(=O)(=O)c3cn(C)cn3)CC[C@@H]2C(=O)NO)cc1 endpoint_unit=nM reported_value=39.2
structure=COc1ccc(S(=O)(=O)N2CCN(C(=O)OCc3ccccc3)CC[C@@H]2C(=O)NO)cc1 endpoint_unit=nM reported_value=14

Could you share what IC50 was measured for `COc1ccc(S(=O)(=O)N2CC[C@H](C(=O)NO)N(S(=O)(=O)c3ccc(OC)cc3)CC2)cc1` , tested on Stromelysin-1 (Homo sapiens, UniProt P08254)?
6.3

---

# pIC50 per entry for Neutrophil collagenase (Homo sapiens, UniProt P22894)
Notebook: values listed as pIC50 are -log10 of the concentration (mol/L).

structure=COc1ccc(S(=O)(=O)N2CN(C3CCCCC3)C(=O)C[C@@H]2C(=O)NO)cc1 measurement_kind=pIC50 reported_value=8.55

If you can, please state the reported pIC50 value of `COc1ccc(S(=O)(=O)N2CCN(S(=O)(=O)c3cn(C)cn3)CC[C@@H]2C(=O)NO)cc1` .
8.18

If you can, please state the reported pIC50 value of `COc1ccc(S(=O)(=O)N2CCN(C(C)C)C(=O)C[C@@H]2C(=O)NO)cc1` .
8.43

If you can, please state the reported pIC50 value of `COc1ccc(S(=O)(=O)N2CN(C(C)C)C(=O)C[C@@H]2C(=O)NO)cc1` .
8.20

If you can, please state the reported pIC50 value of `COCCN1CN(S(=O)(=O)c2ccc(OC)cc2)[C@@H](C(=O)NO)CC1=O` .
6.99

If you can, please state the reported pIC50 value of `COc1ccc(S(=O)(=O)N2CN(Cc3ccccc3)C(=O)C[C@@H]2C(=O)NO)cc1` .
8.19
